# Test system: Haemophilus influenzae 1218
# EXPERIMENTAL_DETAILS: MIC, microtiter broth dilution (NCCLS M100-S14), H. influenzae 1218 (susceptible)
# Format: cell-based
# CONDITION_PARAMETERS: Haemophilus influenzae 1218

COMPOUND: CCC(c1ccnc2ccccc12)N1CC(N2C(=O)OC3(C)C(CC)OC(=O)C(C)C(=O)C(C)C(OC4OC(C)CC(N(C)C)C4O)C(C)(OC)CC(C)C(=O)C(C)C23)C1 (mixture of isomers) [Example 1.61]
MIC H. influenzae 1218 (µg/mL): 4
//
COMPOUND: CCC1OC(=O)C(C)C(=O)C(C)C(OC2OC(C)CC(N(C)C)C2O)C(C)(OC)CC(C)C(=O)C(C)C2N(CC3CN(C(=O)c4cnn5ccccc45)C3)C(=O)OC12C (stereo not drawn) [4.35]
MIC H. influenzae 1218 (µg/mL): 1
//
COMPOUND: CCC1OC(=O)C(C)C(=O)C(C)C(OC2OC(C)CC(N(C)C)C2O)C(C)(OC)CC(C)C(=O)C(C)C2N(CC3CN(S(=O)(=O)c4cccc(C#N)c4)C3)C(=O)OC12C (stereo not drawn) [4.07]
MIC H. influenzae 1218 (µg/mL): 1

---

# System: Streptococcus pneumoniae 1175
# Type: cell-based
# CONDITION_PARAMETERS: Streptococcus pneumoniae 1175; microtiter broth dilution

COMPOUND: CCC1OC(=O)C(C)C(=O)C(C)C(OC2OC(C)CC(N(C)C)C2O)C(C)(OC)CC(C)C(=O)C(C)C2N(C3CN(Cc4c(OC)cnc5ccccc45)C3)C(=O)OC12C (centres unmarked)
UNITS_TEXT: µg/mL
CENSORING_OPERATOR: <
MIC S. pneumo. 1175: 0.063
//
COMPOUND: CCC1OC(=O)C(C)C(=O)C(C)C(OC2OC(C)CC(N(C)C)C2O)C(C)(OC)CC(C)C(=O)C(C)C2N(C3CN(Cc4ccnc5ccncc45)C3)C(=O)OC12C (centres unmarked)
UNITS_TEXT: µg/mL
CENSORING_OPERATOR: =
MIC S. pneumo. 1175: 0.5
//
COMPOUND: CCC1OC(=O)C(C)C(=O)C(C)C(OC2OC(C)CC(N(C)C)C2O)C(C)(OC)CC(C)C(=O)C(C)C2N(C3CN(S(=O)(=O)c4ccc(S(C)(=O)=O)cc4)C3)C(=O)OC12C (centres unmarked)
UNITS_TEXT: µg/mL
CENSORING_OPERATOR: <
MIC S. pneumo. 1175: 0.06
//
COMPOUND: CCC1OC(=O)C(C)C(=O)C(C)C(OC2OC(C)CC(N(C)C)C2O)C(C)(OC)CC(C)C(=O)C(C)C2N(CC3CN(C(=O)c4ccc5cccnc5n4)C3)C(=O)OC12C.O=CO (centres unmarked)
UNITS_TEXT: µg/mL
CENSORING_OPERATOR: =
MIC S. pneumo. 1175: 0.5
//
COMPOUND: CCC1OC(=O)C(C)C(=O)C(C)C(OC2OC(C)CC(N(C)C)C2O)C(C)(OC)CC(C)C(=O)C(C)C2N(C3CN(C(=O)c4ccc(-n5cccn5)cc4)C3)C(=O)OC12C (centres unmarked)
UNITS_TEXT: µg/mL
CENSORING_OPERATOR: =
MIC S. pneumo. 1175: 0.12

---

Listed here: items and their measured MIC S. pneumo. 1175.
# Test system: Streptococcus pneumoniae 1175
# Format: cell-based
# CONDITION_PARAMETERS: Streptococcus pneumoniae 1175; microtiter broth dilution

MOLECULE: CCC(c1ccnc2ccccc12)N1CC(N2C(=O)OC3(C)C(CC)OC(=O)C(C)C(=O)C(C)C(OC4OC(C)CC(N(C)C)C4O)C(C)(OC)CC(C)C(=O)C(C)C23)C1 (mixture of isomers)
CENSORING_OPERATOR: =
MIC S. pneumo. 1175 [µg/mL]: 0.25
--
MOLECULE: CCC1OC(=O)C(C)C(=O)C(C)C(OC2OC(C)CC(N(C)C)C2O)C(C)(OC)CC(C)C(=O)C(C)C2N(C3CN(Cc4ccc(C#N)cc4)C3)C(=O)OC12C (stereo not drawn)
CENSORING_OPERATOR: =
MIC S. pneumo. 1175 [µg/mL]: 0.5
--
MOLECULE: CC[C@H]1OC(=O)[C@H](C)C(=O)[C@H](C)[C@@H](O[C@@H]2O[C@H](C)C[C@H](N(C)C)[C@H]2O)[C@](C)(OC)C[C@@H](C)C(=O)[C@H](C)[C@H]2N(CC3(C)CN(Cc4ccc5cccnc5c4)C3)C(=O)O[C@]12C
CENSORING_OPERATOR: =
MIC S. pneumo. 1175 [µg/mL]: 0.5
--
MOLECULE: CCC1OC(=O)C(C)C(=O)C(C)C(OC2OC(C)CC(N(C)C)C2O)C(C)(OC)CC(C)C(=O)C(C)C2N(C3CN(S(=O)(=O)c4ccc(NC(C)=O)cc4)C3)C(=O)OC12C (stereo not drawn)
CENSORING_OPERATOR: =
MIC S. pneumo. 1175 [µg/mL]: 0.5
--
MOLECULE: CCC1OC(=O)C(C)C(=O)C(C)C(OC2OC(C)CC(N(C)C)C2O)C(C)(OC)CC(C)C(=O)C(C)C2N(C3CN(S(=O)(=O)c4ncn5ccccc45)C3)C(=O)OC12C (stereo not drawn)
CENSORING_OPERATOR: <
MIC S. pneumo. 1175 [µg/mL]: 0.06
--
MOLECULE: CC[C@H]1OC(=O)[C@H](C)[C@@H](OC(=O)N2CCCC2)[C@H](C)[C@@H](O[C@@H]2O[C@H](C)C[C@H](N(C)C)[C@H]2O)[C@](C)(OC)C[C@@H](C)C(=O)[C@H](C)[C@H]2N(CC3CN(C(=O)c4cccc5cccnc45)C3)C(=O)O[C@]12C
CENSORING_OPERATOR: <
MIC S. pneumo. 1175 [µg/mL]: 0.06
--
MOLECULE: CCC1OC(=O)C(C)C(=O)C(C)C(OC2OC(C)CC(N(C)C)C2O)C(C)(OC)CC(C)C(=O)C(C)C2N(C3CN(Cc4c(C)cnc5ccccc45)C3)C(=O)OC12C (stereo not drawn)
CENSORING_OPERATOR: <
MIC S. pneumo. 1175 [µg/mL]: 0.063
--
MOLECULE: CCC1OC(=O)C(C)C(=O)C(C)C(OC2OC(C)CC(N(C)C)C2O)C(C)(OC)CC(C)C(=O)C(C)C2N(C3CN(S(=O)(=O)c4ccc(-n5cncn5)cc4)C3)C(=O)OC12C (stereo not drawn)
CENSORING_OPERATOR: =
MIC S. pneumo. 1175 [µg/mL]: 0.12
--
MOLECULE: CCC1OC(=O)C(C)C(=O)C(C)C(OC2OC(C)CC(N(C)C)C2O)C(C)(OC)CC(C)C(=O)C(C)C2N(C3CN(S(=O)(=O)c4cccc5ncccc45)C3)C(=O)OC12C (stereo not drawn)
CENSORING_OPERATOR: <
MIC S. pneumo. 1175 [µg/mL]: 0.063

---

Listed here: items and their measured MIC H. influenzae 1218.
# Test system: Haemophilus influenzae 1218
# EXPERIMENTAL_DETAILS: MIC, microtiter broth dilution (NCCLS M100-S14), H. influenzae 1218 (susceptible)
# Assay type: cell-based
# CONDITION_PARAMETERS: Haemophilus influenzae 1218
TEST_READOUT: MIC H. influenzae 1218 (µg/mL)

COMPOUND: CCC1OC(=O)C(C)C(=O)C(C)C(OC2OC(C)CC(N(C)C)C2O)C(C)(OC)CC(C)C(=O)C(C)C2N(C3CN(C(=O)c4cccc(-c5noc(C)n5)c4)C3)C(=O)OC12C (stereo not shown)
TEST_READOUT: MIC H. influenzae 1218
UNITS_TEXT: µg/mL
ASSAY_RESULT: 64
--
COMPOUND: CCC1OC(=O)C(C)C(=O)C(C)C(OC2OC(C)CC(N(C)C)C2O)C(C)(OC)CC(C)C(=O)C(C)C2N(C3CN(S(=O)(=O)c4ccc(C)c5nccnc45)C3)C(=O)OC12C (stereo not shown)
TEST_READOUT: MIC H. influenzae 1218
UNITS_TEXT: µg/mL
ASSAY_RESULT: 0.25
--
COMPOUND: CCC1OC(=O)C(C)C(=O)C(C)C(OC2OC(C)CC(N(C)C)C2O)C(C)(OC)CC(C)C(=O)C(C)C2N(C3CN(S(=O)(=O)c4cccc(-c5nnco5)c4)C3)C(=O)OC12C (stereo not shown)
TEST_READOUT: MIC H. influenzae 1218
UNITS_TEXT: µg/mL
ASSAY_RESULT: 2
--
COMPOUND: CCC1OC(=O)C(C)C(=O)C(C)C(OC2OC(C)CC(N(C)C)C2O)C(C)(OC)CC(C)C(=O)C(C)C2N(C3CN(S(=O)(=O)c4ccc(S(C)(=O)=O)cc4)C3)C(=O)OC12C (stereo not shown)
TEST_READOUT: MIC H. influenzae 1218
UNITS_TEXT: µg/mL
ASSAY_RESULT: 1
